# Test system: STS26T
# ASSAY NAME: relative IC50 (inflection point of fitted dose-response curve, CellTiter-Glo viability, 72 h; top asymptote may be below 50% inhibition); higher = less potent
ENDPOINT LABEL: relative IC50

{"COMPOUND": "COc1nc(N)nc2c1ncn2[C@@H]1O[C@H](CO)[C@@H](O)[C@@H]1O", "MEASURED VALUE": "> 10 µM"}
{"COMPOUND": "CNCc1ccc(-c2[nH]c3cc(F)cc4c3c2CCNC4=O)cc1", "MEASURED VALUE": "> 10 µM"}
{"COMPOUND": "CNC(=O)c1cc(Oc2ccc(NC(=O)Nc3ccc(Cl)c(C(F)(F)F)c3)cc2)ccn1", "MEASURED VALUE": "> 1 µM"}
{"COMPOUND": "CC(=O)Nc1ccc(C(=O)Nc2ccccc2N)cc1", "MEASURED VALUE": "> 1 µM"}
{"COMPOUND": "C[C@H]1C[C@@H]2[C@H]([C@@H](O)C[C@@]3(C)[C@H]2CC[C@]3(O)C(=O)CO)[C@@]2(C)C=CC(=O)C=C12", "MEASURED VALUE": "> 10 µM"}
{"COMPOUND": "CNC(=O)c1ccc(N2C(=S)N(c3ccc(C#N)c(C(F)(F)F)c3)C(=O)C2(C)C)cc1F [Enzalutamide]", "MEASURED VALUE": "> 10 µM"}
{"COMPOUND": "CN(N=O)C(=O)N[C@@H]1[C@@H](O)[C@H](O)[C@@H](CO)O[C@@H]1O", "MEASURED VALUE": "> 10 µM"}
{"COMPOUND": "CS(=O)(=O)OCCCCOS(C)(=O)=O", "MEASURED VALUE": "> 100 µM"}
{"COMPOUND": "CCC1(c2ccc(N)cc2)CCC(=O)NC1=O (stereo not drawn) [Aminoglutethimide]", "MEASURED VALUE": "> 10 µM"}
{"COMPOUND": "C[C@]12CC[C@@H]3c4ccc(O)cc4C[C@@H](CCCCCCCCC[S+]([O-])CCCC(F)(F)C(F)(F)F)[C@H]3[C@@H]1CC[C@@H]2O (stereo partly drawn)", "MEASURED VALUE": "> 1 µM"}
{"COMPOUND": "CC1=C2C[C@H]3[C@@H](CC=C4C[C@@H](O)CC[C@@]43C)[C@@H]2CC[C@]12O[C@@H]1C[C@H](C)CN[C@H]1[C@H]2C", "MEASURED VALUE": "> 10 µM"}
{"COMPOUND": "Oc1ncc(N(CCCl)CCCl)c(O)n1", "MEASURED VALUE": "> 10 µM"}
{"COMPOUND": "Clc1ccc(Nc2nnc(Cc3ccncc3)c3ccccc23)cc1", "MEASURED VALUE": "> 10 µM"}

###

# Test system: HS-PSS
# ASSAY NAME: relative IC50 (inflection point of fitted dose-response curve, CellTiter-Glo viability, 72 h; top asymptote may be below 50% inhibition); higher = less potent

{"RECORD SMILES": "Cc1cccc(-c2nn3c(c2-c2ccnc4ccc(C(N)=O)cc24)CCC3)n1", "relative IC50": "> 1 µM"}
{"RECORD SMILES": "CNNCc1ccc(C(=O)NC(C)C)cc1", "relative IC50": "> 10 µM"}
{"RECORD SMILES": "C[C@H](Nc1ncnc2nc[nH]c12)c1cc2cccc(Cl)c2c(=O)n1-c1ccccc1", "relative IC50": "> 0.5 µM"}
{"RECORD SMILES": "O=C(O)CC[C@H]1CC[C@@](c2cc(F)ccc2F)(S(=O)(=O)c2ccc(Cl)cc2)CC1", "relative IC50": "> 1 µM"}
{"RECORD SMILES": "Cc1cc(C)c(/C=C2\\C(=O)Nc3ccccc32)[nH]1", "relative IC50": "> 10 µM"}
{"RECORD SMILES": "O=C(O)CCCc1ccc(N(CCCl)CCCl)cc1", "relative IC50": "> 10 µM"}
{"RECORD SMILES": "c1cn2cc(-c3ccc4cn[nH]c4c3)nc(Nc3ccc(N4CCOCC4)cc3)c2n1", "relative IC50": "> 5 µM"}
{"RECORD SMILES": "C[C@@H]1C[C@H]2[C@@H]3CCC4=CC(=O)C=C[C@]4(C)[C@@]3(F)[C@@H](O)C[C@]2(C)[C@@]1(O)C(=O)CO", "relative IC50": "> 10 µM"}
{"RECORD SMILES": "O=c1sn(-c2cccc3ccccc23)c(=O)n1Cc1ccccc1", "relative IC50": "> 3 µM"}
